- procedure_summary: Permeability in human Caco2 cells at 5 uM after 120 mins by LC-MS/MS analysis relative to control
- Format: ADME, cell-based
- test_conditions: Caco-2, read-out: Fabs
quantity_name: Fa at 2 h, 5 µM (%)

1: Cc1ccc(C(=O)Nc2cc(CN3CCN(C)CC3)cc(C(F)(F)F)c2)cc1-c1ccc2c(-c3cnn(C4CC4)c3)n[nH]c2c1
2: Cc1ccc(C(=O)Nc2cccc(C(F)(F)F)c2)cc1-c1ccc2c(-c3cnn(C4CC4)c3)n[nH]c2c1
Short answer wanted: higher Fa at 2 h, 5 µM, 1 or 2 ? Label of pick, please. 2
(2: 48.6%, 1: 12%)

###

- procedure_summary: Cmax in ICR(CD-1) mouse at 10 mg/kg, po administered via gavage by triple quadrupole mass spectrometric analysis
- Assay type: ADME, organism-based
- Parameters: dose 10 mg/kg, route oral
- test_conditions: in vivo
quantity_name: Cmax (ng/mL)

According to the records, this molecule `Cc1ccc(C(=O)Nc2cccc(C(F)(F)F)c2)cc1-c1ccc2c(-c3ccc(N4CCN(C)CC4)cc3)n[nH]c2c1` displays Cmax of 15.9

According to the records, this molecule `Cc1ccc(C(=O)Nc2cccc(C(F)(F)F)c2)cc1-c1ccc2c(-c3cnn(C)c3)n[nH]c2c1` displays Cmax of 890

According to the records, this molecule `Cc1ccc(C(=O)Nc2cccc(C(F)(F)F)c2)cc1-c1ccc2c(-c3cnn(C4CCN(C)CC4)c3)n[nH]c2c1` displays Cmax of 170

P: Cc1ccc(C(=O)Nc2cccc(C(F)(F)F)c2)cc1-c1ccc2c(-c3cnn(C4CC4)c3)n[nH]c2c1
Q: Cc1ccc(C(=O)Nc2cc(CN3CCN(C)CC3)cc(C(F)(F)F)c2)cc1-c1ccc2c(-c3cnn(C4CC4)c3)n[nH]c2c1
Short answer wanted: higher Cmax, P or Q ? Label of pick, please. P
(P: 1120 ng/mL, Q: 111 ng/mL)

###

- target_under_test: Voltage-gated inwardly rectifying potassium channel KCNH2 (Homo sapiens)
- Sequence (Q12809 whole entry): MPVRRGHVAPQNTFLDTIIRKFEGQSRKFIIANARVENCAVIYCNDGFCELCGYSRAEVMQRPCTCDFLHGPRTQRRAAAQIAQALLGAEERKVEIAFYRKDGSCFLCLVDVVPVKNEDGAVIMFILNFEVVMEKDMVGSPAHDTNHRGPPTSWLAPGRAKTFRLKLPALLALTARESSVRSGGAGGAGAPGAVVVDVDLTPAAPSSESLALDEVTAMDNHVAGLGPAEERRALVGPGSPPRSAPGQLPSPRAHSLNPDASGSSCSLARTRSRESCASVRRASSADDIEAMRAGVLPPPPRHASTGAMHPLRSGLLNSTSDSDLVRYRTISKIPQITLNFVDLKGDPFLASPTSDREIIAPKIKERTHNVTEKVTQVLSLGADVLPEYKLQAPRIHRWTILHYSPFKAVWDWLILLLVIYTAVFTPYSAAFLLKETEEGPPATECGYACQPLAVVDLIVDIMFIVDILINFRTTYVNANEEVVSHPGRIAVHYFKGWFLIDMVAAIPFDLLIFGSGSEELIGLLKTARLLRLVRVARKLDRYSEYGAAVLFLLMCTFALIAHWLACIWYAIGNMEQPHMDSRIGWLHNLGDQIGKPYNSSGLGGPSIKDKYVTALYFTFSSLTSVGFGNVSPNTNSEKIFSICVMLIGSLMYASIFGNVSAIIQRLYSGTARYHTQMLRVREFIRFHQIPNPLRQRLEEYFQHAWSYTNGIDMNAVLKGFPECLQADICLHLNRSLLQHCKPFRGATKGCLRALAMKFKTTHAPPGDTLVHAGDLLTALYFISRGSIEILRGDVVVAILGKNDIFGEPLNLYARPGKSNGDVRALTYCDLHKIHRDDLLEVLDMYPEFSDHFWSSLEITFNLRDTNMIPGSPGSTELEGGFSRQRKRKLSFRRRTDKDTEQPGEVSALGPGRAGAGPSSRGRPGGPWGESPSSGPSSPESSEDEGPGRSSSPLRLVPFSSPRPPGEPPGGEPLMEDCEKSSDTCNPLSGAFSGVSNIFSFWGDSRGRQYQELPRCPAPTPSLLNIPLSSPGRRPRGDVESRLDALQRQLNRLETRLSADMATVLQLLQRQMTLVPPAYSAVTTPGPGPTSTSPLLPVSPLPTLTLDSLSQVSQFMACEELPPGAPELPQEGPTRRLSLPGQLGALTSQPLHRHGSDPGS
- procedure_summary: Inhibition of human ERG by automated patch clamp electrophysiology assay
quantity_name: IC50

According to the records, this molecule `Cc1ccc(C(=O)Nc2cccc(C(F)(F)F)c2)cc1-c1ccc2c(-c3cnn(C4CC4)c3)n[nH]c2c1` displays IC50 of > 40 µM

###

- procedure_summary: Half life in ICR(CD-1) mouse at 10 mg/kg, po administered via gavage by triple quadrupole mass spectrometric analysis
- Format: ADME, organism-based
- test_conditions: in vivo
quantity_name: half-life (h)

According to the records, this molecule `Cc1ccc(C(=O)Nc2cccc(C(F)(F)F)c2)cc1-c1ccc2c(-c3cnn(C4CCN(C)CC4)c3)n[nH]c2c1` displays half-life of 2.75

According to the records, this molecule `Cc1ccc(C(=O)Nc2cccc(C(F)(F)F)c2)cc1-c1ccc2c(-c3cnn(C)c3)n[nH]c2c1` displays half-life of 2.75

a: Cc1ccc(C(=O)Nc2cccc(C(F)(F)F)c2)cc1-c1ccc2c(-c3cnn(C4CC4)c3)n[nH]c2c1
b: Cc1ccc(C(=O)Nc2cc(CN3CCN(C)CC3)cc(C(F)(F)F)c2)cc1-c1ccc2c(-c3cnn(C4CC4)c3)n[nH]c2c1
c: Cc1ccc(C(=O)Nc2cccc(C(F)(F)F)c2)cc1-c1ccc2c(-c3cnn(CC(C)O)c3)n[nH]c2c1 (stereo not given)
Kindly order the items shown according to half-life, from the highest value down. Please list the labels according to the requested order. a, b, c
(a: 3.05 h, b: 1.4 h, c: 0.75 h)
